# Percent Effect per record follows
system: Trypanosoma brucei; assay: Trypanosoma brucei 72 hour study; type: functional, organism-based; design: scale not given: in the data most compounds retested in dose-response had high values; conditions: 30.3 µM; […]
The campaign covered roughly 66,000 compounds. About 960 (1.5%) showed an effect of 50% or more. The full list was thinned out, with strong results kept by preference.

Compound: COc1cccc(N2CCC(CNc3cc(C)nc4ncnn34)C2)c1 (configuration not stated)
Percent Effect, %: -742.4
--
Compound: O=C(O)C(F)(F)F.O=S(=O)(c1cccs1)N1CCCC2(COCCN(c3cccnc3)C2)C1 (configuration not stated)
Percent Effect, %: 53.4
--
Compound: COc1cccc(Nc2nc(C3CCNCC3)c3ccccn23)c1.Cl
Percent Effect, %: 24.37
--
Compound: CN(C)C(=O)c1n[nH]c2c1CN(CC1CCC1)C2.O=C(O)C(F)(F)F.O=C(O)C(F)(F)F
Percent Effect, %: -41.36
--
Compound: CN1CCCc2c1nc1c(c2N)CCCC1.O=C(O)C(=O)O
Percent Effect, %: 6.357
--
Compound: COc1cccc(Nc2nc(C3CCCNC3)c3sc(C)c(C)n23)c1.Cl (configuration not stated)
Percent Effect, %: 2.239
--
Compound: COc1ccc(CN2CCC[C@H]2c2nc(-c3cncnc3N)no2)cc1
Percent Effect, %: -48.86
--
Compound: c1cc(N2CCOCC(Cc3ccc4[nH]ccc4c3)C2)ncn1 (configuration not stated)
Percent Effect, %: -4.218
--
Compound: COc1ccccc1CNc1ncc(-c2cc(C)no2)c(C(C)C)n1
Percent Effect, %: -4.15
--
Compound: COCC(=O)N1CCCCC1c1nc(N(C)C)ncc1-c1cc(C)no1 (configuration not stated)
Percent Effect, %: -6.324
--
Compound: CCc1ccc(CN2CCCCC2c2n[nH]cc2-c2cc(C)no2)cc1.Cl (configuration not stated)
Percent Effect, %: 53.31
--
Compound: COc1cccc(Nc2nc(C3CCCNC3)c3ccccn23)c1.Cl (configuration not stated)
Percent Effect, %: -1.342
--
Compound: Cn1cc(CNC2CCc3c(ccc(=O)n3Cc3ccncc3)C2)cn1.O=C(O)C(F)(F)F.O=C(O)C(F)(F)F (configuration not stated)
Percent Effect, %: 3.089
--
Compound: COc1ccc(CNC(=O)Nc2cccnc2N2CCCC2)cc1
Percent Effect, %: -33.31
--
Compound: COc1ccccc1CN1CCCCC1c1n[nH]cc1-c1cc(C)no1.Cl (configuration not stated)
Percent Effect, %: 99.66
--
Compound: COCC1CN(c2ccc(C)nn2)Cc2cnn(CC3CCOCC3)c21.O=C(O)C(F)(F)F.O=C(O)C(F)(F)F (configuration not stated)
Percent Effect, %: -39.18
--
Compound: Cc1cc(N2CCOCC(Cc3ccc4[nH]ccc4c3)C2)ncn1 (configuration not stated)
Percent Effect, %: 12.74
--
Compound: Cc1sc2c(C3CCCNC3)nc(Nc3cccc(F)c3)n2c1C.Cl (configuration not stated)
Percent Effect, %: 100.1
--
Compound: Cl.O=C(Nc1cccc(F)c1)C1=NOC2(CCNCC2)C1
Percent Effect, %: -7.13
--
Compound: Fc1cccc(-c2nccnc2C2CCCNC2)c1 (configuration not stated)
Percent Effect, %: -21.91
--
Compound: Cc1sc2c(C3CCNCC3)nc(Nc3cccc(F)c3)n2c1C.Cl
Percent Effect, %: 99.26
--
Compound: COc1ccccc1N1CCC(CNCc2ccc(C#N)cc2)C1 (configuration not stated)
Percent Effect, %: 92.2

---

test system: Trypanosoma brucei; assay: Trypanosoma brucei 72 hour study; type: functional, organism-based; set-up: scale not given: in the data most compounds retested in dose-response had high values; conditions: 30 µM; 30.03 µM
In all, about 66,000 compounds went through this assay and about 960 (1.5%) showed an effect of 50% or more. This is one part of a sample in which strong results are shown more often than they occur.
compounds and their reported Percent Effect

Compound: I.c1ccc(OCCNC2=NCCCN2)cc1
Percent Effect / %: -0.004482
--
Compound: CCC1CN(C(=O)c2csc3nc(-c4ccc(Cl)cc4)cn23)CCN1 (stereo not given)
Percent Effect / %: 66.56
--
Compound: COc1ncccc1CN1CC[C@]2(C[C@@H](OCc3ccccn3)CO2)C1.O=C(O)C(F)(F)F.O=C(O)C(F)(F)F.O=C(O)C(F)(F)F
Percent Effect / %: 2.267
--
Compound: CN1CC(=O)N(c2cnn(C)c2)CC12CCN(Cc1cccs1)C2.O=C(O)C(F)(F)F.O=C(O)C(F)(F)F (stereo not given)
Percent Effect / %: -5.896
--
Compound: COC1CCN(C(=O)Cc2csc(-c3ncccn3)n2)CC1
Percent Effect / %: 9.896

---

The following molecules are shown together with reported Percent Effect values.
system: Trypanosoma brucei; assay: Trypanosoma brucei 72 hour study; assay type: functional, organism-based; parameters: scale not given: in the data most compounds retested in dose-response had high values; conditions: 30 µM; 30.03 µM
The campaign covered roughly 66,000 compounds. About 960 (1.5%) showed an effect of 50% or more. Only a selection was taken, and strong results are over-represented in it overall.

Molecule: CCN(Cc1ccncc1)c1cc(C2CCNCC2)nc(C)n1
Unit Abbreviation: %
Percent Effect: -25.3

Molecule: COCCNC(=O)[C@@]12CCO[C@@H]1CCN(Cc1ccc(OC)cc1)C2.O=C(O)C(F)(F)F
Unit Abbreviation: %
Percent Effect: 7.509

Molecule: COc1cccc(C2CCCN2Cc2nnnn2C2CC2)c1 (configuration not stated)
Unit Abbreviation: %
Percent Effect: 7.439

Molecule: Cc1noc(NC(=O)c2ccc(C)c(F)c2)n1
Unit Abbreviation: %
Percent Effect: 65.47

Molecule: Cl.O=C(NCc1ccccc1)C1=NOC2(CCNC2)C1 (configuration not stated)
Unit Abbreviation: %
Percent Effect: 2.25

Molecule: Cn1ccnc1C(=O)N1CCC2(CC1)CC(Oc1cccnc1)CO2.O=C(O)C(F)(F)F (configuration not stated)
Unit Abbreviation: %
Percent Effect: 24.28

Molecule: CC(C)c1nccc(CN2CCCC(O)(CN(C)C)C2)n1 (configuration not stated)
Unit Abbreviation: %
Percent Effect: -2.317

Molecule: Cc1ccc(CN2CC[C@H]3[C@@H]2CCC(=O)N3CCN2CCCC2)s1.O=C(O)C(F)(F)F.O=C(O)C(F)(F)F
Unit Abbreviation: %
Percent Effect: 11.06

Molecule: Cc1cc(=O)n2nc(Oc3cc(Cl)cc(Cl)c3)sc2n1
Unit Abbreviation: %
Percent Effect: -23.2

Molecule: O=C1CC(NCc2ncc[nH]2)CN1CCc1cccc(Cl)c1 (configuration not stated)
Unit Abbreviation: %
Percent Effect: 84.65

Molecule: Cc1cnccc1-c1cc(NCCO)nc2[nH]ccc12
Unit Abbreviation: %
Percent Effect: -32

Molecule: CC(C)c1cc(C2CCN(C(=O)Cn3cnc4ccccc43)CC2)[nH]n1
Unit Abbreviation: %
Percent Effect: -44.45

Molecule: O=C(Nc1ccccn1)C1CC(=O)N(Cc2ccccn2)C1 (configuration not stated)
Unit Abbreviation: %
Percent Effect: -8.332

Molecule: O=C1CC(NCc2ccncc2)CN1CCc1cccc(Cl)c1 (configuration not stated)
Unit Abbreviation: %
Percent Effect: -25.97

Molecule: CC1(c2ccccc2)CCCN(Cc2cncn2C2CCCC2)C1 (configuration not stated)
Unit Abbreviation: %
Percent Effect: 102.5

Molecule: COCCn1cncc1CN1CCCC(C)(c2ccccc2)C1 (configuration not stated)
Unit Abbreviation: %
Percent Effect: -43.69

Molecule: COc1ncccc1NC(=O)C1CC(=O)N(Cc2ccccn2)C1 (configuration not stated)
Unit Abbreviation: %
Percent Effect: 55.04

Molecule: COc1ncccc1-c1ncccc1NC(=O)C(C)C
Unit Abbreviation: %
Percent Effect: 34.88

Molecule: COc1cc(C(=O)Nc2nc(C)no2)ccc1C
Unit Abbreviation: %
Percent Effect: 38.15

Molecule: O=C1NCc2ccc(NC(=O)C3CCCN3c3nccs3)cc21 (configuration not stated)
Unit Abbreviation: %
Percent Effect: 23.55

Molecule: COCc1cccc(C(=O)N2C[C@H]3CC[C@@H]2CN(Cc2cscn2)C3)n1
Unit Abbreviation: %
Percent Effect: -49.27

Molecule: Cc1noc(NC(=O)c2ccc(Br)cc2)n1
Unit Abbreviation: %
Percent Effect: 95.54

Molecule: Nc1cc(-c2cc(O)cc(C(=O)O)c2)c2cc[nH]c2n1
Unit Abbreviation: %
Percent Effect: -9.984

Molecule: CN(CC(=O)NCC(F)(F)F)C(=O)c1ccc(C(=O)OC(C)(C)C)cc1
Unit Abbreviation: %
Percent Effect: 14.69

Molecule: COCCCNC(=O)CCn1nc(C)c2ccccc21
Unit Abbreviation: %
Percent Effect: 61.88

Molecule: O=C1CC(NCc2ccccn2)CN1CCc1ccc(F)cc1 (configuration not stated)
Unit Abbreviation: %
Percent Effect: 2.338

Molecule: Cc1cc(=O)n2nc(Oc3ccc(F)c(F)c3)sc2n1
Unit Abbreviation: %
Percent Effect: -14.16

Molecule: Cc1ccc(C(=O)N2CCC3(CC2)C(=O)NCCN3C)cc1O
Unit Abbreviation: %
Percent Effect: -5.883

Molecule: CN(C)CC1CN(C(=O)CCc2ccccc2)Cc2nccn2C1.O=C(O)C(F)(F)F (configuration not stated)
Unit Abbreviation: %
Percent Effect: -27.78

Molecule: Cn1cc(C2CCCN2Cc2csc(C(C)(C)C)n2)cn1 (configuration not stated)
Unit Abbreviation: %
Percent Effect: 87.76

Molecule: Cc1cnccc1CNCc1ccc(OC23CCCN(CC2)C3)cc1 (configuration not stated)
Unit Abbreviation: %
Percent Effect: 6.423

Molecule: COC(=O)CCN(C)Cc1cc(Br)cs1
Unit Abbreviation: %
Percent Effect: -12.73

Molecule: CCc1noc(C(C)N(C)CC(=O)Nc2ccc(Br)cc2C)n1 (configuration not stated)
Unit Abbreviation: %
Percent Effect: -22.21

Molecule: Cc1nc(CNCc2cccc(OC34CCCN(CC3)C4)c2)n[nH]1 (configuration not stated)
Unit Abbreviation: %
Percent Effect: 3.883

Molecule: COc1cc(C#N)ccc1OC12CCCN(CC1)C2 (configuration not stated)
Unit Abbreviation: %
Percent Effect: -13.64

Molecule: Cc1cccc(C(=O)N2CCC3(CCN(c4cnn(C)c4)C3=O)C2)n1.O=C(O)C(F)(F)F (configuration not stated)
Unit Abbreviation: %
Percent Effect: -10.65

Molecule: CC(C)c1nccc(CN2CCCC(O)(CN3CCCC3)C2)n1 (configuration not stated)
Unit Abbreviation: %
Percent Effect: 17.13

Molecule: CC(C)c1nccc(CN2CCC(O)(CN3CCCCC3)C2)n1 (configuration not stated)
Unit Abbreviation: %
Percent Effect: 67.93

Molecule: Cc1noc(NC(=O)c2ccc(OC(F)(F)F)cc2)n1
Unit Abbreviation: %
Percent Effect: 107.1

Molecule: Cc1nc(C2CCNCC2)cc(N(C)Cc2cc3cc(F)ccc3[nH]2)n1
Unit Abbreviation: %
Percent Effect: 7.512

Molecule: Cc1cc(=O)n2nc(Oc3cccc(I)c3)sc2n1
Unit Abbreviation: %
Percent Effect: 99.1

Molecule: COc1ccc(N2Cc3nc(N)ncc3C2=O)cc1Cl
Unit Abbreviation: %
Percent Effect: -4.562

Molecule: Clc1ccc(C2(CNC3=NCCN3)CCCCC2)cc1.I
Unit Abbreviation: %
Percent Effect: 18.91

Molecule: O=C(Nc1cccn(Cc2ccc(F)cc2)c1=O)c1csnn1
Unit Abbreviation: %
Percent Effect: -24.79

Molecule: CCOCCCNC(=O)CCCC(=O)n1nc(C)c2ccccc21
Unit Abbreviation: %
Percent Effect: -9.537

Molecule: Cc1ccc(Cl)cc1NC(=O)C1CC(=O)N(Cc2ccccn2)C1 (configuration not stated)
Unit Abbreviation: %
Percent Effect: 8.87

Molecule: COc1ccc(F)c(-c2ncccc2NC(=O)C(C)C)c1
Unit Abbreviation: %
Percent Effect: 20.56
